Data provenance: patent US7829665B2

Provide the recorded pIC50 for the entries that follow.
ASSAY_SYSTEM: full-length NS3/NS4A-2 (HCV NS3 protease) (Hepatitis C virus genotype 1a)
Construct: Recombinant E. coli or Baculovirus full-length NS3 was diluted to 3.33 μM with assay buffer; made in house; host or cells: E. coli or baculovirus (BV) expression system
Sequence (P27958 1027-1657): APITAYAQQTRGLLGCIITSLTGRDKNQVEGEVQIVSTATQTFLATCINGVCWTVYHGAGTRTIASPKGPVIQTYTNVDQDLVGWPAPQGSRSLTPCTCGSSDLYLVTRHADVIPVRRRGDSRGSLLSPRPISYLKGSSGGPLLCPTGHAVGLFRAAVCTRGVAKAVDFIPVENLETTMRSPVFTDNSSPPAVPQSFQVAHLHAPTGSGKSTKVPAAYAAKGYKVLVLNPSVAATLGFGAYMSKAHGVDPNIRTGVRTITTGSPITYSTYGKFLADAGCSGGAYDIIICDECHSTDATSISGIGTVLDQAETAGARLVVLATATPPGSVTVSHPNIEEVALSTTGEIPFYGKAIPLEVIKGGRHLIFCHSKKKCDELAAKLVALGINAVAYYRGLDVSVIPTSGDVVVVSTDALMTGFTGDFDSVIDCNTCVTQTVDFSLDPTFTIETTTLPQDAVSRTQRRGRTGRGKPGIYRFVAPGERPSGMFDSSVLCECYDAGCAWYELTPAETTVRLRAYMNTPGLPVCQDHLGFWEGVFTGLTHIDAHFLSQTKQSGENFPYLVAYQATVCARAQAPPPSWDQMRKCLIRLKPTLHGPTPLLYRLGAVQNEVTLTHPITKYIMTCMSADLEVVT
METHOD: NS3-NS4 protease assay / NS3 inhibition assay (RETS1 substrate, fluorescence kinetic read)
Format: biochemical
CONDITION_PARAMETERS: recombinant E. coli or Baculovirus full-length NS3 with NS4A-2; read-out: NS3-NS4 IC50
pIC50: −log10 of the molar value.

Example cases with answers are listed next.
[
  {
    "COMPOUND": "O=C1N[C@]2(C(=O)NS(=O)(=O)C3CC3)C[C@H]2/C=C\\CCCCC[C@H](Nc2nc(-c3ccccc3)cs2)C(=O)N2C[C@H](OC(=O)N3Cc4cccc(Cl)c4C3)C[C@@H]12",
    "pIC50": "> 7.00"
  },
  {
    "COMPOUND": "CC(C)(C)OC(=O)N[C@H]1CCCCC/C=C\\[C@@H]2C[C@@]2(C(=O)NS(=O)(=O)C2CC2)NC(=O)[C@@H]2C[C@@H](OC(=O)Nc3nc4ccccc4s3)CN2C1=O",
    "pIC50": "> 7.00"
  },
  {
    "COMPOUND": "O=C(CCO)N[C@H]1CCCCC/C=C\\[C@@H]2C[C@@]2(C(=O)NS(=O)(=O)C2CC2)NC(=O)[C@@H]2C[C@@H](OC(=O)N3Cc4cccc(F)c4C3)CN2C1=O",
    "pIC50": "> 7.00"
  }
]

Hey, can you go through the list below and give me pIC50 for every item?
1. CC(CO)(CO)C(=O)N[C@H]1CCCCC/C=C\[C@@H]2C[C@@]2(C(=O)NS(=O)(=O)C2CC2)NC(=O)[C@@H]2C[C@@H](OC(=O)N3Cc4cccc(F)c4C3)CN2C1=O
2. CC[C@@H]1C[C@H]2C(=O)N[C@]3(C(=O)NS(=O)(=O)C4CC4)C[C@H]3/C=C\CCCCC[C@H](NC(=O)C3CC3)C(=O)N2C1
3. O=C(N[C@H]1CCCCC/C=C\[C@@H]2C[C@@]2(C(=O)O)NC(=O)C2C[C@@H](OC(=O)N3Cc4cccc(F)c4C3)CN2C1=O)c1cnccn1 (some centres unmarked)
4. CCC(C)(C)Nc1c(N[C@H]2CCCCC/C=C\[C@@H]3C[C@@]3(C(=O)NS(=O)(=O)C3CC3)NC(=O)[C@@H]3C[C@@H](OC(=O)N4Cc5cccc(F)c5C4)CN3C2=O)c(=O)c1=O
5. O=C1N[C@]2(C(=O)NS(=O)(=O)C3CC3)C[C@H]2/C=C\CCCCC[C@H](NCc2cccc(C(F)(F)F)c2)C(=O)N2C[C@H](OC(=O)N3Cc4cccc(F)c4C3)C[C@@H]12
6. COc1ccc(S(=O)(=O)NC(=O)[C@@]23C[C@H]2/C=C\CCCCC[C@H](NC(=O)OC(C)(C)C)C(=O)N2CCC[C@H]2C(=O)N3)cc1
7. O=C1N[C@]2(C(=O)NS(=O)(=O)C3CC3)C[C@H]2/C=C\CCCCC[C@H](Nc2c(N3CCCC3)c(=O)c2=O)C(=O)N2C[C@H](OC(=O)N3Cc4cccc(F)c4C3)C[C@@H]12

Reply:
["> 7.00", "> 6.00", "> 6.00", "> 7.00", "> 7.00", "> 5.00", "> 7.00"]

Hey, can you go through the list below and give me pIC50 for every item?
1. CC(C)(C)OC(=O)N[C@H]1CCCCC/C=C\[C@@H]2C[C@@]2(C(=O)NS(=O)(=O)c2cccc(F)c2)NC(=O)[C@@H]2CCCN2C1=O
2. CNC(=O)NC(=O)[C@@]12C[C@H]1/C=C\CCCCC[C@H](NC(=O)OC(C)(C)C)C(=O)N1C[C@H](OC(=O)N3Cc4ccccc4C3)C[C@H]1C(=O)N2 [Compound 702]
3. CC(C)(C)OC(=O)N[C@H]1CCCCC/C=C\[C@@H]2C[C@@]2(C(=O)O)NC(=O)[C@@H]2C[C@@H](OC(=O)N3Cc4ccc(F)cc4C3)CN2C1=O
4. O=C(N[C@H]1CCCCC/C=C\[C@@H]2C[C@@]2(C(=O)NS(=O)(=O)Nc2ccc(Cl)cc2)NC(=O)[C@@H]2CCCN2C1=O)C1CC1
5. CC(C)(C)OC(=O)N[C@H]1CCCCC/C=C\[C@@H]2C[C@@]2(C(=O)NCc2ccccn2)NC(=O)[C@@H]2CCCN2C1=O

Reply:
1: > 5.00; 2: > 6.00; 3: > 7.00; 4: > 5.00; 5: < 5.00

Hey, can you go through the list below and give me pIC50 for every item?
1. CC(C)(C)OC(=O)N[C@H]1CCCCC/C=C\[C@@H]2C[C@@]2(C(=O)NCc2ccncc2)NC(=O)[C@@H]2CCCN2C1=O
2. O=C(N[C@H]1CCCCC/C=C\[C@@H]2C[C@@]2(C(=O)NS(=O)(=O)NCC2CC2)NC(=O)[C@@H]2C[C@@H](OC(=O)N3Cc4cccc(F)c4C3)CN2C1=O)OC1CCCC1
3. CC(C)(C)OC(=O)N[C@H]1CCCCC/C=C\[C@@H]2C[C@@]2(C(=O)NC(=O)c2ccccc2)NC(=O)[C@@H]2C[C@@H](OC(=O)N3Cc4ccccc4C3)CN2C1=O
4. N[C@H]1CCCCC/C=C\[C@@H]2C[C@@]2(C(=O)NS(=O)(=O)Nc2ccc(Cl)cc2)NC(=O)[C@@H]2C[C@@H](OC(=O)N3Cc4ccccc4C3)CN2C1=O
5. N#CNC(=O)[C@@]12C[C@H]1/C=C\CCCCC[C@H](NC(=O)OC1CCCC1)C(=O)N1C[C@H](OC(=O)N3Cc4cccc(F)c4C3)CC1C(=O)N2 (some centres unmarked)

Reply:
1: < 5.00; 2: > 7.00; 3: > 7.00; 4: > 6.00; 5: > 7.00

Hey, can you go through the list below and give me pIC50 for every item?
1. CC(C)(C)OC(=O)N[C@H]1COCCCCC[C@@H]2C[C@@]2(C(=O)NS(=O)(=O)C2CC2)NC(=O)[C@@H]2C[C@@H](OC(=O)N3Cc4cccc(F)c4C3)CN2C1=O
2. Cc1cc(Cl)cc(Cl)c1S(=O)(=O)NC(=O)[C@@]12C[C@H]1/C=C\CCCCC[C@H](NC(=O)OC(C)(C)C)C(=O)N1CCC[C@H]1C(=O)N2
3. CN(C(=O)[C@@]12C[C@H]1/C=C\CCCCC[C@H](NC(=O)OC(C)(C)C)C(=O)N1C[C@H](OC(=O)N3Cc4cccc(F)c4C3)C[C@H]1C(=O)N2)S(=O)(=O)C1CC1

Reply:
1: > 7.00; 2: > 6.00; 3: > 5.00
